Target: M1 muscarinic receptor (Homo sapiens)
Construct: expressed in transfected cells; host or cells: CHO (M1-CHO)
Sequence (P11229 1-460): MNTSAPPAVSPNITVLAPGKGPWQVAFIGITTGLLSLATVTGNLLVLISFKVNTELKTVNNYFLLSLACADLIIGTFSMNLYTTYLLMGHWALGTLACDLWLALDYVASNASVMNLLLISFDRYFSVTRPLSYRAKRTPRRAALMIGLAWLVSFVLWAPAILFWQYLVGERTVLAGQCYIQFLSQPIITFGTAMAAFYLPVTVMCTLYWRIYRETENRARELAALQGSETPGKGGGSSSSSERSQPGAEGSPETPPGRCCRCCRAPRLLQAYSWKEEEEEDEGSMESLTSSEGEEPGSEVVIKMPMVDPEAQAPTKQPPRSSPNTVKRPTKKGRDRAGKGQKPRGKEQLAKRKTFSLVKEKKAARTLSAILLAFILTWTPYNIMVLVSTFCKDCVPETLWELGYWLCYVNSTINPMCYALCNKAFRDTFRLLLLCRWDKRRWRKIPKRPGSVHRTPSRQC
Test: Functional mobilization of intracellular calcium (FLIPR) in M1-CHO cells
Assay type: cell-based
Conditions: M1 receptor, calcium mobilization; read-out: M1 Efficacy
Description: Functional Mobilization of Intracellular Calcium to Determine Muscarinic Receptor Activity: […] Compounds are prepared at a 2× fold concentration in a 96-well plate (round bottom, Costar Corning cat# 3656), by reconstituting the pre-spotted compounds in bath 1 containing 1 mM probenecid. […] In both assay modes, the fluorescence is recorded for 60 sec (excitation wavelength is […] and emission wavelength 540 nm) using the FLIPR 3 instrument. […]
Kindly supply the reported Emax values for the records listed here.

Worked cases, answers included:
molecule	Emax
CC(C)OC(=O)N1C2CCC1CC(N1CCC3(CC1)CN(C(=O)O[C@@H]1CCOC1)c1ccc(F)cc13)C2 (stereo partly shown)	< 65%
CCOC(=O)N1C2CCC1CC(N1CCC3(CC1)CN(C(C)=O)c1ccc(F)cc13)C2 (stereo not shown)	65 to 85%

// for each molecule in input: emit Emax
1. COC(=O)N1CCC(N2CCC3(CC2)CN(C(=O)N(C)C)c2ccc(F)cc23)CC1
2. CCOC(=O)N1C2CCC1CC(N1CCC3(CCc4ccccc43)CC1)C2 (stereo not shown)
3. CCCC1CCC(N2CCC3(CC2)C[C@H](NC(C)=O)c2ccccc23)CC1 (stereo partly shown)
4. COCCOC(=O)N1CCC(N2CCC3(CC2)CN(C(C)=O)c2ccc(F)cc23)CC1

1: 65 to 85%; 2: 65 to 85%; 3: 65 to 85%; 4: < 65%

I need Emax for every entry listed below, if you could help.
1. CCOC(=O)N1CCC(N2CCC3(CC2)CN(C(=O)CC)c2ccc(F)cc23)CC1
2. COC(=O)N1C2CCC1CC(N1CCC3(CC1)COc1ccc(F)cc13)C2 (stereo not shown)
3. CCOC(=O)N1CCC(N2CCC3(CC2)CN(C(=O)c2ccccc2C)c2ccc(F)cc23)CC1
4. CCOC(=O)N1CCC(N2CCC3(CC2)CN(C(C)=O)c2ccc(-c4ccc(C(C)=O)cc4)cc23)CC1
5. CCOC(=O)N1CCC(N2CCC3(CC2)CN(C(=O)c2ccc(OC(F)(F)F)cc2)c2ccc(F)cc23)CC1

1. < 65%
2. 65 to 85%
3. < 65%
4. 65 to 85%
5. > 85%

Please look at the items below and tell me Emax for each one, in order.
1. CC(=O)N1CC2(CCN(C3CCN(C(=O)O[C@@H]4CCOC4)CC3)CC2)c2cc(C)ccc21
2. O=C(C1CCC1)N1CC2(CCN(C3CC4CCC(C3)N4C(=O)O[C@@H]3CCOC3)CC2)c2cc(F)ccc21 (stereo partly shown)
3. CCOC(=O)N1CCC(N2CCC3(CC2)CN(C(=O)C2CCCC2)c2ccc(F)cc23)CC1
4. Cc1ccc2c(c1)C1(CCN(C3CC4CCC3C4)CC1)CN2C(=O)c1cc(C)n(C)n1 (stereo not shown)
5. Clc1ccc2c(c1)C1(CCO2)CCN(CC2CCOCC2)CC1
6. Cc1ccc2c(c1)C1(CCN(C3CC4CCC3C4)CC1)CN2C(=O)c1cc(C)on1 (stereo not shown)
7. CCOC(=O)N1C2CCC1CC(N1CCC3(CC1)CN(C(=O)c1ccc(F)cc1)c1ccc(F)cc13)C2 (stereo not shown)

1: < 65%; 2: < 65%; 3: < 65%; 4: 65 to 85%; 5: < 65%; 6: < 65%; 7: < 65%

Quick request: Emax for each listed item, please.
1. CC(C)C(=O)N(C)[C@H]1CC2(CCN(C[C@H]3C[C@H]4CC[C@H]3C4)CC2)c2ccccc21
2. CCOC(=O)N1CCC(N2CCC3(CC2)CN(C(C)=O)c2ccc(-c4ccc(NC(C)=O)cc4)cc23)CC1
3. COCCOC(=O)N1C2CCC1CC(N1CCC3(CC1)CN(C(=O)C1CC1)c1ccc(F)cc13)C2 (stereo not shown)
4. CCOC(=O)N1C2CCC1CC(N1CCC3(CC1)CN(C(=O)c1cc(C)oc1C)c1ccc(F)cc13)C2 (stereo not shown)
5. CCCCOC(=O)N1CC2(CCN(C3CCN(C(=O)OCC)CC3)CC2)c2cc(F)ccc21

1. < 65%
2. 65 to 85%
3. 65 to 85%
4. 65 to 85%
5. 65 to 85%

For every record below, what is its Emax?
1. Clc1ccc2c(c1)C1(CCN([C@H]3C[C@@H]4CC[C@@H]3C4)CC1)CO2
2. CCOC(=O)N1C2CCC1CC(N1CCC3(CC1)CN(C(=O)c1cc(C)nn1C(C)(C)C)c1ccc(F)cc13)C2 (stereo not shown)

65 to 85%
65 to 85%
